System: Plasmodium falciparum K1 strain
run description: In vitro anti-plasmodial assay (micro test), growth inhibition of P. falciparum K1
Format: cell-based
condition info: Plasmodium falciparum, K1, 48 h, read-out: IC50 Plasmodium falciparum K1
Known IC50 of a selection of molecules
Give just the numeric value; µM need not be written.

>>> experimental_result("CC1(C)C(=O)C=C[C@@]2(C)C1CC(=O)[C@]1(C)C2CC[C@@]2(C)[C@H](c3ccoc3)OC(=O)[C@H]3O[C@]321 (some centres unmarked)")
20.7

Attention now shifts to the item below.
Ask: Need IC50 of CCN(CC)CCCC(C)Nc1ccnc2cc(Cl)ccc12 (centres unmarked) [chloroquine diphosphate, reference compound] , thanks.
Result: 0.33
